# Organism: Rattus norvegicus
# PROTOCOL_NOTES: Open TG-GATES - Regimen: Daily Repeat
# Assay type: toxicity, organism-based, Sprague-Dawley
# Parameters: regimen Daily Repeat, gender Male, age 6 weeks
# SETTINGS: in vivo, po, 300 mg/kg, […], tissue Blood, route gavage, dose level Middle, time 14 day
MEASURED_METRIC: Hb (g/dL)
Please give a number only; it is taken to be in g/dL.

See these solved cases before continuing.
COMPOUND | Hb [g/dL]
O=C(O)c1ccccc1Nc1ccccc1 | 14.4
CC(S)C(=O)NCC(=O)O (centres undefined) | 14
CCCCNC(=O)NS(=O)(=O)c1ccc(C)cc1 [TOLBUTAMIDE] | 14.6

Here's the next entry for you.
Prompt line: Hb for CC(=O)[C@@]1(O)CC[C@H]2[C@@H]3C=C(Cl)C4=CC(=O)CC[C@]4(C)[C@H]3CC[C@@]21C ?
Response line: 15.2
